Could you please report measured inhibition for the items listed next?
system: mevalonate kinase [Streptococcus pneumoniae D39]; assay: pneumococcal mevalonate kinase activity blockers – biochemical, PK/LDH-coupled NADH absorbance, primary screen (AID 555); conditions: purified MK, PK/LDH-coupled NADH absorbance 340 nm; measured here: pilot screen replicates; at 10 µM; stronger effect = higher value
Among all 65,000 compounds or so, about 320 (0.49%) were called active. The full list was thinned out, with actives kept by preference.
Numbers only, in %.

Some compounds with recorded inhibition:
Cc1nc(C)c(C(=O)Nc2ccc(C)c(F)c2)o1	0.5
O=C(c1cccc(C(=O)N2CCN(c3ccc(F)cc3)CC2)c1)N1CCN(c2ccc(F)cc2)CC1	0
CC1CCCC(N2CCN(C(=O)c3ccc(F)cc3)CC2)C1 (stereo not drawn)	0
COc1ccc(C2/C(=C(/O)c3ccc(OC(C)C)cc3)C(=O)C(=O)N2CCCN2CCOCC2)cc1 (stereo not drawn)	0

Could you tell me inhibition for each of these compounds? They are listed below.
1. COC(=O)c1ccc(COC(=O)c2c(C)nn(Cc3ccccc3Cl)c2Cl)o1
2. Cc1cnc(C(=O)OCC(=O)Nc2ccc(Cl)cc2Cl)cn1

[2, 0]

Could you tell me inhibition for each of these compounds? They are listed below.
1. O=C(CSc1nnc2ccccn12)c1ccccc1
2. CCn1c(SCC(=O)Nc2nccs2)nnc1-c1ccncc1

1.5
2
